Exercise: for every item that follows, state its recorded polymerase ribozyme fitness (log ratio).
B1: TPR t1 (parent)
chain: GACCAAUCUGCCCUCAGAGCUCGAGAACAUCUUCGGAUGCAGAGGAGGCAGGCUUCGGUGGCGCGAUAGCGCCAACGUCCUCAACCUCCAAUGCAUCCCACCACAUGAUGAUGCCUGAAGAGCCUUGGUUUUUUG

- Variants of: B1
- PROTOCOL: polymerase ribozyme fitness, log enrichment relative to wild type (log ratio); higher = more active; in vitro selection for triplet polymerase activity
The response must contain the number and no unit.

Task: Sample C62A C72G U112G — what was its polymerase ribozyme fitness (log ratio)?
Result: -1.95

Task: Consider the variant shown here: U9G U55C C89U C94A U126A What is its recorded polymerase ribozyme fitness (log ratio)?
Result: -1.95

Task: Recorded polymerase ribozyme fitness (log ratio) for U78A A95C G113U U125G , please?
Result: -4.39

Task: // polymerase ribozyme fitness (log ratio) lookup, key: C8A C56A C70A C98U C123G
Result: -1.64

Task: For the variant shown here, C53G G120A G127U , give the reported polymerase ribozyme fitness (log ratio).
Result: -0.0103

Task: Value lookup for polymerase ribozyme fitness (log ratio); key = C12U C13G C70G
Result: -2.49

Task: Need polymerase ribozyme fitness (log ratio), item C56A C79A
Result: -1.77

Task: Could you share which polymerase ribozyme fitness (log ratio) value was measured for C4U G110U ?
Result: -1.93

Task: Returns the measured polymerase ribozyme fitness (log ratio) for the input variant. Input: C72U C76U
Result: 0.954

Task: If you can, please state the reported polymerase ribozyme fitness (log ratio) value of G17U U38G G45A C88U C101U .
Result: -2.92

Task: So what does the record say about polymerase ribozyme fitness (log ratio) for C11G G60A C70U ?
Result: -0.917

Task: What does the data say about its polymerase ribozyme fitness (log ratio)? Entry: G44U C56U U87C
Result: -1.16

Task: Could you share which polymerase ribozyme fitness (log ratio) value was measured for C11U A16U U112A ?
Result: -0.434

Task: What value of measured polymerase ribozyme fitness (log ratio) is listed for C70U C80U ?
Result: -0.851

Task: Return reported polymerase ribozyme fitness (log ratio); argument: A50U A95C
Result: -1.9

Task: Consider the variant G19C C20A and give its measured polymerase ribozyme fitness (log ratio).
Result: -6.28

Task: Record request: polymerase ribozyme fitness (log ratio) value, item C8U G113A A121G
Result: -0.604

Task: Quick one: polymerase ribozyme fitness (log ratio) of C8U A111C ?
Result: 0.776

Task: Consider the variant C4G C40G and give its measured polymerase ribozyme fitness (log ratio).
Result: -2.02

Task: What value of polymerase ribozyme fitness (log ratio) has been recorded for this entry: A6U C72U C76G C98U
Result: -1.11

Task: // polymerase ribozyme fitness (log ratio) lookup, key: A5C G23U G71C U112C U126A U131A
Result: -4.82

Task: GET /values?readout=polymerase ribozyme fitness (log ratio)&item= C13U C70U U109A U132A
Result: -6.56
